- target_desc: rat RXFP2 (Rattus norvegicus, UniProt F7EMH8)
- Sequence (F7EMH8 20-737): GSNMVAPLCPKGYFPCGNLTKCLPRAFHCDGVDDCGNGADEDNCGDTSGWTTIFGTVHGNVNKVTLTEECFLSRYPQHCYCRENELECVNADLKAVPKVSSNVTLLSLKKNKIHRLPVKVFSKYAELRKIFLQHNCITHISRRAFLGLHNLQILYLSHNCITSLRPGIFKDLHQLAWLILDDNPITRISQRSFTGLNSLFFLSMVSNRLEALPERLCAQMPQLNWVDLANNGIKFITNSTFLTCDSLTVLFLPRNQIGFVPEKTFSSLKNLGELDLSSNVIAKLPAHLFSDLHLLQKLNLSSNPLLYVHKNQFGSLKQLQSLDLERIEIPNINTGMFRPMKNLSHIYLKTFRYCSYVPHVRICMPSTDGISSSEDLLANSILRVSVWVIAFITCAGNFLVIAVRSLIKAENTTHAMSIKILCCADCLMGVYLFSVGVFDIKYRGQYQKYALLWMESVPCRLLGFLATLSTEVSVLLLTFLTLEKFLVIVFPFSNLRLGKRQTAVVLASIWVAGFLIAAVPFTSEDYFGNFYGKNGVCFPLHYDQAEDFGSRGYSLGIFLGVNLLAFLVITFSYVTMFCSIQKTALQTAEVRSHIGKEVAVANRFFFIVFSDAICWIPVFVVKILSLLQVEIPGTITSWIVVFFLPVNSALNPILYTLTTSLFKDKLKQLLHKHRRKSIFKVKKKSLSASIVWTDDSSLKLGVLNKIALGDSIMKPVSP
- protocol_notes: INSL3-stimulated cAMP assay in HEK293 stably expressing rat RXFP2;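 also: cAMP measured with an HitHunter kit in 384-well plates, 11-point dose–response curves up to 1 µM antibody, four-parameter variable-slope fit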
- conditions: read-out: HEK293-rat RXFP2 cAMP IC50; INSL3 EC80-stimulated cAMP, stable expression; N = 2
Reported IC50 values follow for various molecules
Entry rule: numbers only, all in µM.

Worked examples follow.
molecule	unit_info	numeric_result
3F3: RXFP2 monoclonal antibody from hybridoma, recombinantly expressed in a rat IgG2b backbone (antibody, V domains shown) VH: QVQLQQPGSVLVRPGASVKLSCKASGYIFTSYWMHWVKQRPGQGLEWIGEIYPNSGRTSYNEKFKGKATVTVDTSSSTAYVDLSSLTSEDSAVYYCASGGHWFAYWGQGTLVTVSA VL: DIQMTQSSSSFSVSLGDRVTITCKASEDIYNRLAWYQQKPGNAPRLLISGATSLEAGVPSRFSGSGSGKDYTLSITSLQTEDVSTYYCQQYWITPYTFGGGTKLEIK	µM	0.037
3H1: RXFP2 monoclonal antibody from hybridoma, recombinantly expressed in a rat IgG2b backbone (antibody, V domains shown) VH: QVQLKETGPGLVAPSQSLSITCTVSGFSLTNYGVNWVRQPPGKGLEWLVVIWSDGSTNYNSALKSRLSISKDNSKSQVFLKMNSLQTDDTAMYYCARQQGYYAMDYWGQGTSVIVSS VL: DIQMTQSPASLSVSVGETVTITCRASENIYSNLAWYQQKQGKSPQLLVYAVTNLADGVPSRFSGSGSGTQYSLKINSLQSEDFGSYYCQHFWGPPYTFGGGTKLEIK	µM	0.0158

Okay, now this molecule:
Field request: IC50 | item: 4F6: Human/rat cross-reactive RXFP2 monoclonal antibody, rat IgG2b backbone; binds the LDLa domain (antibody, V domains shown) VH: EVQLQQSGPELVKPGASVKMSCKASGYTFTNYVLHWVKQKPGQGLEWIGYINPYNDGSKYNEKFKGRATLTSDKSSSTAYMELSSLTSEDSAVYYCARGGWLLDYFDYWGQGTTLTVSS VL: DVLMTQSPLSLPVSLGEQASISCRSSQSIVHSDGDTYLEWYLQKPGQSPNLLIYKVSNRFSGVPDRFSGSGSGTDFTLKISRVEAEDLGVYYCFQGSHVPPTFGGGTKLEIK
0.0485

Source of measurements: paper PMC11162469
